experiment: Pharmacokinetic Determination (Mouse PK); type: in vivo, female CD-1 mice; conditions: female, CD-1, plasma, PO 10.0 mg/kg vs IV 3.0 mg/kg
quantityMeasured: bioavailability (%)
Give bare numbers, in %.

molecule	bioavailability (%)
C[C@@H]1Cc2c([nH]c3ccccc23)[C@@H](c2c(F)cc(N[C@H]3CCN(CCCF)C3)cc2F)N1C12CC(C1)C2 [Compound 19]	69.8
C[C@@H]1Cc2c([nH]c3ccccc23)[C@@H](c2c(F)cc(O[C@@H]3CCN(CCCF)C3)cc2F)N1C12CC(C1)C2 (single isomer, unassigned) [Compound 5]	49.5
C[C@@H]1Cc2c([nH]c3ccccc23)[C@@H](c2c(F)cc(N[C@H]3CCN(CCCF)C3)cc2F)N1C12CC(CO)(C1)C2 (single isomer, unassigned) [Compound 70]	21.4
CCCN1CC(Oc2ccc([C@@H]3c4[nH]c5ccccc5c4C[C@@H](C)N3C34CC(C3)C4)cc2)C1 [Compound 39]	29.6
C[C@@H]1Cc2c([nH]c3ccccc23)[C@@H](c2cnc(NC3CN(CCCF)C3)cn2)N1C12CC(C1)C2 [Compound 16]	39.5

List bioavailability for every entry below, keeping the order given.
1. C[C@@H]1Cc2c([nH]c3ccccc23)[C@@H](c2ccc(NC3CN(CCCF)C3)cc2)N1C12CC(CO)(C1)C2 (single isomer, unassigned) [Compound 58]
2. CCCN1CC(Nc2ccc([C@@H]3c4[nH]c5ccccc5c4C[C@@H](C)N3C34CC(C3)C4)cc2)C1 [Compound 31]
3. C[C@@H]1Cc2c([nH]c3ccccc23)[C@@H](c2ccc(NC3CN(CCCF)C3)cn2)N1C12CC(C1)C2 [Compound 2]
4. C[C@@H]1Cc2c([nH]c3ccccc23)[C@@H](c2ccc(O[C@H]3CCN(CCCF)C3)nc2)N1C12CC(C1)C2 (single isomer, unassigned) [Compound 10]
5. C[C@@H]1Cc2c([nH]c3ccccc23)[C@@H](c2ccc(NC3CN(CCCF)C3)nc2)N1C12CC(C1)C2 [Compound 21]

Result:
1. 31.8
2. 87.7
3. 43.3
4. 15.3
5. 5.03
